Data provenance: paper PMC5504357

Test system: Candida haemulonii
Assay: Biofilm-growing cells, XTT assay, bMIC
Type: cell-based
Settings: geometric mean, C. haemulonii isolates; values marked * do not include LIP Ch4 (>512)
Description: The effect of the compounds on biofilm-growing cells was determined using the previously described microtiter-based technique (Ramage et al., [2001]). […] The metabolic activity was then evaluated using a colorimetric assay that measures the metabolic reduction of 2,3-bis (2-methoxy-4-nitro-5-sulfophenyl)-5-[(phenylamino) carbonyl]-2H-tetrazolium hydroxide (XTT; Sigma-Aldrich) to a water-soluble, brown formazan product (Peeters et al., [2008]). […]
property: GM-bMIC

O.O.O.O.O=C1C(=O)c2cccnc2-c2ncccc21.O=C1C(=O)c2cccnc2-c2ncccc21.O=C1C(=O)c2cccnc2-c2ncccc21.[Cu+2].[O-][Cl+3]([O-])([O-])[O-].[O-][Cl+3]([O-])([O-])[O-] [compound 6, [Cu(phendione)3](ClO4)2.4H2O] :: 50.80 mg/L
CCO.O=C([O-])CCCCCCC(=O)[O-].[Cu+2].[Cu+2].[O-][Cl+3]([O-])([O-])[O-].[O-][Cl+3]([O-])([O-])[O-].c1cnc2c(c1)ccc1cccnc12.c1cnc2c(c1)ccc1cccnc12.c1cnc2c(c1)ccc1cccnc12.c1cnc2c(c1)ccc1cccnc12 [compound 5, [Cu2(oda)(phen)4](ClO4)2.2.76H2O.EtOH] :: 20.16 mg/L
CCO.O.O.O.O.O.O.O=C([O-])c1cccc(C(=O)[O-])c1.[Cu+2].c1cnc2c(c1)ccc1cccnc12.c1cnc2c(c1)ccc1cccnc12 [compound 3, [Cu(isoph)(phen)2].6H2O.EtOH] :: 20.16 mg/L
O=C1C(=O)c2cccnc2-c2ncccc21.O=C1C(=O)c2cccnc2-c2ncccc21.[Ag+].[O-][Cl+3]([O-])([O-])[O-] [compound 15, [Ag(phendione)2]ClO4] :: 11.31^* mg/L

---

Here, each record is paired with measured bMIC data.
System: Candida haemulonii var. vulnera
Assay: Biofilm-growing cells, XTT assay, bMIC
Assay type: cell-based
Details: isolate LIP Ch9; mature biofilm, 48 h, 50% inhibition of metabolic activity
property: bMIC

O.O.O.O.O=C([O-])c1cccc(C(=O)[O-])c1.O=C([O-])c1cccc(C(=O)[O-])c1.[Mn+2].[Mn+2].c1cnc2c(c1)ccc1cccnc12.c1cnc2c(c1)ccc1cccnc12.c1cnc2c(c1)ccc1cccnc12 [compound 10, [Mn2(isoph)2(phen)3].4H2O] :: 8 mg/L
O.O.O.O.O.O.O.O.O.O.O.O.O.O.O.O.O=C([O-])c1cccc(C(=O)[O-])c1.O=C([O-])c1cccc(C(=O)[O-])c1.[Mn+2].[Mn+2].c1cnc2c(c1)ccc1cccnc12.c1cnc2c(c1)ccc1cccnc12.c1cnc2c(c1)ccc1cccnc12.c1cnc2c(c1)ccc1cccnc12.c1cnc2c(c1)ccc1cccnc12 [compound 11, {[Mn(phen)2(H2O)2]}2(isoph)2(phen).12H2O] :: 4 mg/L
O.O.O.O.O.O=C([O-])c1ccccc1C(=O)[O-].[Mn+2].c1cnc2c(c1)ccc1cccnc12.c1cnc2c(c1)ccc1cccnc12 [compound 9, [Mn(ph)(phen)2(H2O)].4H2O] :: 4 mg/L
[Ag+].[O-][Cl+3]([O-])([O-])[O-].c1cnc2c(c1)ccc1cccnc12.c1cnc2c(c1)ccc1cccnc12 [compound 17, [Ag(phen)2]ClO4] :: 0.5 mg/L
c1cnc2c(c1)ccc1cccnc12 :: 32 mg/L
